These data points were gathered from ChEMBL document CHEMBL1201862.

# Tested on: SK-MEL-5
# MEASUREMENT_NOTES: NCI tumour cell line growth inhibition, 48 h
Calls of active or inactive are those of the source. Cut-off read from the data, not from the text of the source: active = GI50 up to about 1.1 µM and inactive = higher.
Consider the following compounds and their measured GI50 readings.

>  <COMPOUND>
O=c1n(-c2ccccc2)c(=O)n2n1C1CCC2CC1

>  <EXPERIMENTAL_SYSTEM>
SK-MEL-5

>  <GI50>
> 100 µM (inactive)

$$$$
>  <COMPOUND>
CC(=O)OC(C)(C)/C=C/C(=O)[C@](C)(O)[C@H]1[C@H](O)C[C@@]2(C)[C@@H]3CC=C4[C@@H](C[C@H](O)[C@H](O)C4(C)C)[C@]3(C)C(=O)C[C@]12C

>  <EXPERIMENTAL_SYSTEM>
SK-MEL-5

>  <GI50>
0.701 µM (active)

$$$$
>  <COMPOUND>
CCOc1cccc(/C=N\c2ccccc2SSc2ccccc2/N=C\c2cccc(OCC)c2O)c1O

>  <EXPERIMENTAL_SYSTEM>
SK-MEL-5

>  <GI50>
2.21 µM (inactive)

$$$$
>  <COMPOUND>
CC(=O)OC[C@H]1On2nnnc2[C@H](OC(C)=O)[C@@H](OC(C)=O)[C@@H]1OC(C)=O

>  <EXPERIMENTAL_SYSTEM>
SK-MEL-5

>  <GI50>
> 100 µM (inactive)

$$$$
>  <COMPOUND>
O=C1NC2ON=C(c3ccccc3)C2C2ON=C(c3ccccc3)N12 (centres undefined)

>  <EXPERIMENTAL_SYSTEM>
SK-MEL-5

>  <GI50>
54 µM (inactive)

$$$$
>  <COMPOUND>
C#CC1NC(=O)C1N(CC)CC (centres undefined)

>  <EXPERIMENTAL_SYSTEM>
SK-MEL-5

>  <GI50>
> 100 µM (inactive)

$$$$
>  <COMPOUND>
CSc1cc(Cl)c(C)cc1S(=O)(=O)NC(=O)NNc1cccc(C(F)(F)F)n1

>  <EXPERIMENTAL_SYSTEM>
SK-MEL-5

>  <GI50>
> 100 µM (inactive)

$$$$
>  <COMPOUND>
Clc1ccccc1-c1nc2cc(C34CC5CC(CC(C5)C3)C4)ccc2[nH]1

>  <EXPERIMENTAL_SYSTEM>
SK-MEL-5

>  <GI50>
32.7 µM (inactive)

$$$$
>  <COMPOUND>
COC(=O)/C=C/C1(O)C=CC(=O)C=C1

>  <EXPERIMENTAL_SYSTEM>
SK-MEL-5

>  <GI50>
4.65 µM (inactive)

$$$$
